Molecular target: LTA4-h (Homo sapiens, UniProt P09960)
Sequence (P09960 1-611): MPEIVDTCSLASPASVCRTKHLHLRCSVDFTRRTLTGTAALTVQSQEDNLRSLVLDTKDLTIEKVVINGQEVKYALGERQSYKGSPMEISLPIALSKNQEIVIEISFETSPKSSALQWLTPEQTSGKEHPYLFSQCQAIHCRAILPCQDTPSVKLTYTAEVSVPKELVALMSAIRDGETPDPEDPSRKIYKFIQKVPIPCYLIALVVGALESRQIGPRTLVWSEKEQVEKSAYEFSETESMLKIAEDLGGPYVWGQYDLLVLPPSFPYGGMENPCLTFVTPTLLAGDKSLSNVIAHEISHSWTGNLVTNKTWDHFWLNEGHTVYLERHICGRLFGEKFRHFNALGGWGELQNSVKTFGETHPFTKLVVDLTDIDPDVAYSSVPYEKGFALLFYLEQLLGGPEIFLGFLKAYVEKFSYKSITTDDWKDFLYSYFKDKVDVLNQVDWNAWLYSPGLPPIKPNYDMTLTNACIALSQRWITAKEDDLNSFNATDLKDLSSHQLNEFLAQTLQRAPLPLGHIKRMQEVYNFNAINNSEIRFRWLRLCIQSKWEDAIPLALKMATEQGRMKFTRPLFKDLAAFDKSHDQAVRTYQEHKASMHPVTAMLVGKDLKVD
Assay: hydrolase assay (hydrolase-homogeneous time resolved fluorescence)
Format: biochemical
Threshold 40 nM. IC50 below it: 1.0. IC50 at it or above: 0.0.

molecule: CN(Cc1ccc(Oc2ccc(Cl)cc2)cc1)Cc1ccc(N2CCCC(C(=O)O)C2)nc1 (centres unmarked) [Compound 27]
cat: 0.0
//
molecule: C=CCOc1ccc(CNCc2ccc(N3CCCC(C(=O)O)C3)nc2)cc1 (centres unmarked)
cat: 0.0
//
molecule: O=C(O)C1CCCN(c2ccc(CNCCc3ccc(Oc4nc5ccccc5s4)cc3)cc2)C1 (centres unmarked)
cat: 1.0
//
molecule: CC(C)=CCOc1ccc(CNCc2ccc(N3CCCC(C(=O)O)C3)nc2)cc1 (centres unmarked)
cat: 1.0
//
molecule: COCCN(Cc1ccc(Oc2ccc(Cl)cc2)cc1)Cc1ccc(N2CCCC(C(=O)O)C2)nc1 (centres unmarked)
cat: 0.0
//
molecule: COc1cc(C(=O)O)ccc1Oc1ncccc1CNCc1ccc(Oc2ccc(-c3ncco3)cc2)cc1
cat: 0.0
//
molecule: O=C(O)c1ccc(Oc2ncccc2CNCc2ccc(Oc3ccc(Cl)cc3)cc2)cc1
cat: 0.0
//
molecule: O=C(O)C1CCCN(c2ccc(CNCc3ccc(Oc4cnc5ccccc5n4)cc3)cn2)C1 (centres unmarked)
cat: 1.0

---

Biological target: LTA4-h (Homo sapiens, UniProt P09960)
Test: hydrolase assay (hydrolase-homogeneous time resolved fluorescence)
Format: biochemical
pIC50: −log10 of the molar value.
# pIC50 per record follows
reported-endpoint: pIC50

compound: O=C(O)C1CCCN(c2ccc(CNCc3ccc(Oc4ncccn4)cc3)cn2)C1 (centres unmarked) [Compound 34]
result: 7.07
//
compound: Cc1c(C(=O)O)ncn1-c1ccc(CNCc2ccc(Oc3ccc(Cl)cc3)cc2)cn1 [Compound 16]
result: 8.52
//
compound: O=C(O)C1CCCN(c2ccc(CNCc3ccc(Oc4nc5ccccc5s4)cc3)cn2)C1 (centres unmarked) [Compound 30]
result: 9.00
//
compound: O=C(O)C1CCCN(c2ccc(CNCc3ccc(OC/C=C/c4ccccc4)cc3)cn2)C1 (centres unmarked) [Compound 31]
result: 8.05
//
compound: O=C(O)c1ccc(Oc2ncccc2CNCc2ccc(Oc3ccc(-c4ncco4)cc3)cc2)cc1 [Compound 10]
result: 7.64
//
compound: CN(Cc1ccc(C(=O)O)cc1)c1ccc(CNCc2ccc(Oc3ccc(Cl)cc3)cc2)cn1 [Compound 1]
result: 6.55
//
compound: CN(Cc1ccc(Oc2ccc(-c3ncco3)cc2)cc1)Cc1ccc(N2CCCC(C(=O)O)C2)nc1 (centres unmarked) [Compound 26]
result: 7.07
//
compound: O=C(O)C1CCN(c2ccc(CNCc3ccc(Oc4ccc(Cl)cc4)cc3)cn2)CC1 [Compound 2]
result: 7.16
